B1: Transitional endoplasmic reticulum ATPase, residues 26 to 106; numbered along this chain, P55072 (parent)
chain: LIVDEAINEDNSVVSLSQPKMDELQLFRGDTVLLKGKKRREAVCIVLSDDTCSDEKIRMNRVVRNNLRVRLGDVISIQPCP

Variants of: B1
Experiment: abundance fitness (aPCA) (normalised: wild type 0, dead -1); higher = more abundant; growth selection in yeast, the domain comes from the species named
Details: Homo sapiens

# mutant label, abundance fitness
data = [
    ("R70W", -0.127),
    ("V3R", -0.992),
    ("E41I", -0.312),
    ("V63D", 0.029),
    ("V13C", 0.056),
    ("S76T", -0.146),
    ("V13P", -0.457),
    ("V3D", -0.529),
    ("E23W", -0.338),
    ("I57V", -0.019),
    ("N66K", 0.086),
]
